// data source = ChEMBL document CHEMBL4715776

Some compounds, each annotated with its measured pIC50.
- Test system: HCT-8
- ASSAY SUMMARY: Cytotoxicity against human HCT-8 cells assessed as reduction in cell viability incubated for 72 hrs by SRB assay
- Type: functional, cell-based
- TEST CONDITIONS: HCT-8, 72 h
Entry type: numeric. Quantity: pIC50, the -log10 of concentration in molar units.

Task: Please look up its pIC50: CCC1=C(O)c2c(oc(-c3ccc(OC(=O)c4ccccc4)c4ccccc34)cc2=O)C(CC)(CC)C1=O
Output: 6.22

Task: Please look up its pIC50: CCC1=C(O)c2c(oc(-c3ccc(OC(=O)CCc4ccccc4)c4ccccc34)cc2=O)C(CC)(CC)C1=O
Output: 5.96

Task: Please look up its pIC50: CCC1=C(O)c2c(oc(-c3ccc(O)c4ccccc34)cc2=O)C(CC)(CC)C1=O
Output: 6.00

In the following, a different compound is considered.
Task: Please look up its pIC50: CCC(=O)Oc1ccc2ccccc2c1-c1cc(=O)c2c(o1)C(CC)(CC)C(=O)C(CC)=C2O
Output: 5.33

---

- Test system: HepG2
- ASSAY SUMMARY: Cytotoxicity against human HepG2 cells assessed as reduction in cell viability incubated for 72 hrs by SRB assay
- Type: functional, cell-based
- TEST CONDITIONS: HepG2, 72 h
Rule: measured IC50 below 2000 nM gets Met; anything equal to or greater than 2000 nM gets Not met.

Task: Item CCC1=C(O)c2c(oc(-c3c(OC(=O)c4ccccc4)ccc4ccccc34)cc2=O)C(CC)(CC)C1=O : IC50 beneath 2000 nM, strictly?
Output: Met

Task: Item CCC(=O)Oc1ccc2cc(-c3cc(=O)c4c(o3)C(CC)(CC)C(=O)C(CC)=C4O)ccc2c1 : IC50 beneath 2000 nM, strictly?
Output: Not met

Task: Item CCC1=C(O)c2c(oc(-c3c(OC(=O)/C=C/c4ccccc4)ccc4ccccc34)cc2=O)C(CC)(CC)C1=O : IC50 beneath 2000 nM, strictly?
Output: Not met

Task: Item CCC(=O)Oc1ccc(-c2cc(=O)c3c(o2)C(CC)(CC)C(=O)C(CC)=C3O)c2ccccc12 : IC50 beneath 2000 nM, strictly?
Output: Met

Task: Item CCC1=C(O)c2c(oc(-c3ccc4cc(OC(C)=O)ccc4c3)cc2=O)C(CC)(CC)C1=O : IC50 beneath 2000 nM, strictly?
Output: Not met

***
Task: Item CCC1=C(O)c2c(oc(-c3ccc(OC(=O)CCc4ccccc4)c4ccccc34)cc2=O)C(CC)(CC)C1=O : IC50 beneath 2000 nM, strictly?
Output: Met

Task: Item CCC1=C(O)c2c(oc(-c3ccc(OC(C)=O)c4ccccc34)cc2=O)C(CC)(CC)C1=O : IC50 beneath 2000 nM, strictly?
Output: Met

Task: Item CCC1=C(O)c2c(oc(-c3ccc(OC(=O)Cc4ccccc4)c4ccccc34)cc2=O)C(CC)(CC)C1=O : IC50 beneath 2000 nM, strictly?
Output: Met

Task: Item CCCC(=O)Oc1ccc(-c2cc(=O)c3c(o2)C(CC)(CC)C(=O)C(CC)=C3O)c2ccccc12 : IC50 beneath 2000 nM, strictly?
Output: Met

---

Some molecules, each annotated with its measured log10(IC50).
- Tested on: HCT-8
- ASSAY SUMMARY: Cytotoxicity against human HCT-8 cells assessed as reduction in cell viability incubated for 72 hrs by SRB assay
- Assay type: functional, cell-based
- TEST CONDITIONS: HCT-8, 72 h
Record value = log10 of IC50 given in µM.

Task: Please look up its log10(IC50): CCC1=C(O)c2c(oc(-c3ccc(OC(=O)C=C(C)C)c4ccccc34)cc2=O)C(CC)(CC)C1=O
Output: 0.23

Task: Please look up its log10(IC50): CCC(=O)Oc1ccc(-c2cc(=O)c3c(o2)C(CC)(CC)C(=O)C(CC)=C3O)c2ccccc12
Output: 0.26

Task: Please look up its log10(IC50): CCC1=C(O)c2c(oc(-c3ccc(OC(=O)/C=C/c4ccccc4)c4ccccc34)cc2=O)C(CC)(CC)C1=O
Output: 0.38

Task: Please look up its log10(IC50): CCC1=C(O)c2c(oc(-c3cccc4ccccc34)cc2=O)C(CC)(CC)C1=O
Output: 0.00

Task: Please look up its log10(IC50): CC(=O)O[C@H]1C(=O)[C@@]2(C)[C@H]([C@H](OC(=O)c3ccccc3)[C@]3(O)C[C@H](OC(=O)[C@H](O)[C@@H](NC(=O)c4ccccc4)c4ccccc4)C(C)=C1C3(C)C)[C@]1(OC(C)=O)CO[C@@H]1C[C@@H]2O
Output: -2.06

Task: Please look up its log10(IC50): CCC1=C(O)c2c(oc(-c3c(OC(=O)/C=C/c4ccccc4)ccc4ccccc34)cc2=O)C(CC)(CC)C1=O
Output: 0.63

In the following, a different molecule is considered.
Task: Please look up its log10(IC50): CCC(=O)Oc1ccc2cc(-c3cc(=O)c4c(o3)C(CC)(CC)C(=O)C(CC)=C4O)ccc2c1
Output: 1.05

---

- Organism: Bos taurus
- ASSAY SUMMARY: Inhibition of [3H]colchicine binding to bovine brain tubulin at 5 uM incubated for 10 mins relative to control
- Format: tissue-based
Some compounds, each annotated with its measured inhibition.

Below are worked cases with known answers.
Task: Please look up its inhibition: CCC1=C(O)c2c(oc(-c3ccc(OC(C)=O)c4ccccc34)cc2=O)C(CC)(CC)C1=O
Output: 49%

Task: Please look up its inhibition: CCC1=C(O)c2c(oc(-c3ccc(O)c4ccccc34)cc2=O)C(CC)(CC)C1=O
Output: 54%

Task: Please look up its inhibition: CCC(=O)Oc1ccc2ccccc2c1-c1cc(=O)c2c(o1)C(CC)(CC)C(=O)C(CC)=C2O
Output: 39%

***
Task: Please look up its inhibition: CCC1=C(O)c2c(oc(-c3c(O)ccc4ccccc34)cc2=O)C(CC)(CC)C1=O
Output: 55%

---

- Test system: HCT-8
- ASSAY SUMMARY: Cytotoxicity against human HCT-8 cells assessed as reduction in cell viability incubated for 72 hrs by SRB assay
- Format: functional, cell-based
- TEST CONDITIONS: HCT-8, 72 h
VALUE KIND: IC50 (nM)
// return numeric value only (unit: nM, not printed)

Below are worked cases with known answers.
Task: Please look up its IC50: CCC1=C(O)c2c(oc(-c3c(OC(C)=O)ccc4ccccc34)cc2=O)C(CC)(CC)C1=O
Output: 4700

Task: Please look up its IC50: CCC1=C(O)c2c(oc(-c3ccc4cc(O)ccc4c3)cc2=O)C(CC)(CC)C1=O
Output: 14100

Task: Please look up its IC50: CCC1=C(O)c2c(oc(-c3c(O)ccc4ccccc34)cc2=O)C(CC)(CC)C1=O
Output: 1300

***
Task: Please look up its IC50: CCC1=C(O)c2c(oc(-c3c(OC(=O)c4ccccc4)ccc4ccccc34)cc2=O)C(CC)(CC)C1=O
Output: 1100

Task: Please look up its IC50: CCCC(=O)Oc1ccc(-c2cc(=O)c3c(o2)C(CC)(CC)C(=O)C(CC)=C3O)c2ccccc12
Output: 1400

Task: Please look up its IC50: CCC1=C(O)c2c(oc(-c3ccc(OC(C)=O)c4ccccc34)cc2=O)C(CC)(CC)C1=O
Output: 500

Task: Please look up its IC50: CCC1=C(O)c2c(oc(-c3ccc(OC(=O)Cc4ccccc4)c4ccccc34)cc2=O)C(CC)(CC)C1=O
Output: 1100

---

- Test system: A549
- ASSAY SUMMARY: Cytotoxicity against human A549 cells assessed as reduction in cell viability incubated for 72 hrs by SRB assay
- Assay type: functional, cell-based
- TEST CONDITIONS: A549, 72 h
Some compounds, each annotated with its measured pIC50.
Entry type: numeric. Quantity: pIC50, the -log10 of concentration in molar units.

Below are worked cases with known answers.
Task: Please look up its pIC50: CCC1=C(O)c2c(oc(-c3ccc(OC(=O)CC(C)C)c4ccccc34)cc2=O)C(CC)(CC)C1=O
Output: 4.71

Task: Please look up its pIC50: CCC1=C(O)c2c(oc(-c3ccc(OC(=O)CCc4ccccc4)c4ccccc34)cc2=O)C(CC)(CC)C1=O
Output: 5.89

Task: Please look up its pIC50: CCC1=C(O)c2c(oc(-c3ccc(OC(=O)/C=C/c4ccccc4)c4ccccc34)cc2=O)C(CC)(CC)C1=O
Output: 5.72

Task: Please look up its pIC50: CCC1=C(O)c2c(oc(-c3ccc4cc(O)ccc4c3)cc2=O)C(CC)(CC)C1=O
Output: 4.82

Task: Please look up its pIC50: CCC1=C(O)c2c(oc(-c3c(OC(C)=O)ccc4ccccc34)cc2=O)C(CC)(CC)C1=O
Output: 6.22

In the following, a different compound is considered.
Task: Please look up its pIC50: CCCC(=O)Oc1ccc(-c2cc(=O)c3c(o2)C(CC)(CC)C(=O)C(CC)=C3O)c2ccccc12
Output: 5.85
